Target: Bcl-2 protein (Recombinant Human Bcl-2 Protein) (Homo sapiens, UniProt P10415)
Construct: purchased Novus NBP2-34889
Sequence (P10415 whole entry): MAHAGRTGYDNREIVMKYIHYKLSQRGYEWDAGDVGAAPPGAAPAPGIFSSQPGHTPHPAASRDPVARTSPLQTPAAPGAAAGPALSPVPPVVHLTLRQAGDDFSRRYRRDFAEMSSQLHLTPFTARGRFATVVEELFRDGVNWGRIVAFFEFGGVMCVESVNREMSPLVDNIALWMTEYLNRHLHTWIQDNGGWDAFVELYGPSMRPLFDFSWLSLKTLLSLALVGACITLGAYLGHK
Experiment: Binding evaluation of mixture library compounds to Bcl-2 using AS-MS (affinity selection mass spectrometry)
Conditions: AS-MS on the mixture of 1200 library compounds; ASMS Ratio(%)=(A−C)/B×100; replicate n = 2
Listing of entries alongside the reported ASMS ratio (%) n = 2.
propertyMeasured: ASMS ratio (%) n = 2

>>> testresult("CCOc1cccc(-c2cc(CN3CCN(c4ccc(C(=O)N(C)CC56CC7CC(CC(C7)C5)C6)cc4)CC3)cc(OC(C)C)c2)c1")
2.5
>>> testresult("CCOc1cccc(-c2csc(C(=O)N3CCN(c4ccc(C(=O)Nc5ccc(OC)cc5)cc4)CC3)c2)c1")
"−0.3"
>>> testresult("CCOc1cccc(-c2csc(CN3CCN(c4ccc(C(=O)Nc5ccc(OC)cc5)cc4)CC3)c2)c1")
0.0
>>> testresult("CCOc1cccc(-c2csc(C(=O)N3CCN(c4ccc(C(=O)N(CC)CC)cc4)CC3)c2)c1")
"−3.4"
>>> testresult("CCOc1cccc(-c2csc(CN3CCN(c4ccc(C(=O)N(C)CC56CC7CC(CC(C7)C5)C6)cc4)CC3)c2)c1")
4.0
>>> testresult("CCCNC(=O)c1ccc(N2CCN(Cc3ccc(-c4cncc(OCC)c4)cc3OC)CC2)nn1")
"−1.5"
>>> testresult("CCOc1cccc(-c2csc(C(=O)N3CCN(c4ccc(C(=O)N(C)CC56CC7CC(CC(C7)C5)C6)nn4)CC3)c2)c1")
"−8.4"
>>> testresult("CCOc1cccc(C#Cc2ccccc2C(=O)N2CCN(c3ccc(C(=O)Nc4ccc(OC)cc4)cc3)CC2)c1")
0.0
>>> testresult("CCOc1cccc(-c2cc(CN3CCN(c4ccc(C(=O)Nc5ccc(OC)cc5)nn4)CC3)cc(C(F)(F)F)c2)c1")
"−0.5"
>>> testresult("CCOc1cccc(-c2cc(C(=O)N3CCN(c4ccc(C(=O)N(CC)CC)nn4)CC3)cc(C(C)(C)C)c2)c1")
0.0
>>> testresult("CCOc1cncc(-c2cc(CN3CCN(c4ccc(C(=O)Nc5ccc(OC)cc5)nn4)CC3)cc(OC(C)C)c2)c1")
2.0
>>> testresult("CCOc1cncc(-c2cc(CN3CCN(c4ccc(C(=O)N(C)CC56CC7CC(CC(C7)C5)C6)cc4)CC3)cc(OCC)c2)c1")
0.0
>>> testresult("CCOc1cccc(-c2ccc(C(=O)N3CCN(c4ccc(C(=O)N(CC)CC)cc4)CC3)cc2F)c1")
0.2
>>> testresult("CCOc1cccc(-c2ccc(C(=O)N3CCN(c4ccc(C(=O)Nc5ccc(OC)cc5)cc4)CC3)c3ccccc23)c1")
"−3.7"
>>> testresult("CCOc1cccc(-c2cc(C(=O)N3CCN(c4ccc(C(=O)N(CC)CC)cc4)CC3)cc(C(F)(F)F)c2)c1")
0.1
>>> testresult("CCOc1cncc(-c2ccc(CN3CCN(c4ccc(C(=O)Nc5ccc(OC)cc5)cc4)CC3)c(CC)c2)c1")
"−5.8"
>>> testresult("CCOc1cccc(-c2cc(CN3CCN(c4ccc(C(=O)Nc5ccc(OC)cc5)cc4)CC3)cc(C(F)(F)F)c2)c1")
"−1.5"
>>> testresult("CCOc1cccc(-c2ccc(C(=O)N3CCN(c4ccc(C(=O)Nc5ccc(OC)cc5)nn4)CC3)cc2F)c1")
"−2.5"
>>> testresult("CCOc1cccc(-c2ccc(C(=O)N3CCN(c4ccc(C(=O)N(C)CC56CC7CC(CC(C7)C5)C6)nn4)CC3)c3ccccc23)c1")
"−20.0"
>>> testresult("CCOc1cccc(-c2ccc(C(=O)N3CCN(c4ccc(C(=O)Nc5ccc(OC)cc5)nn4)CC3)cc2C)c1")
0.0
>>> testresult("CCOc1cncc(-c2ccc(CN3CCN(c4ccc(C(=O)N(CC)CC)cc4)CC3)cc2F)c1")
"−1.5"
>>> testresult("CCOc1cncc(-c2ccc(CN3CCN(c4ccc(C(=O)N(C)CC56CC7CC(CC(C7)C5)C6)cc4)CC3)c(OC)c2)c1")
0.0
>>> testresult("CCOc1cccc(-c2cc(C(=O)N3CCN(c4ccc(C(=O)N(C)CC56CC7CC(CC(C7)C5)C6)cc4)CC3)cc(C(C)(C)C)c2)c1")
0.0
>>> testresult("CCOc1cncc(-c2cc(C(=O)N3CCN(c4ccc(C(=O)N(CC)CC)cc4)CC3)cc(C(F)(F)F)c2)c1")
"−1.2"
>>> testresult("CCOc1cncc(-c2ccc(CN3CCN(c4ccc(C(=O)Nc5ccc(OC)cc5)cc4)CC3)cc2F)c1")
0.4
>>> testresult("CCOc1cccc(-c2ccc(CN3CCN(c4ccc(C(=O)Nc5ccc(OC)cc5)nn4)CC3)cc2C)c1")
3.7
>>> testresult("CCOc1cncc(-c2ccc(CN3CCN(c4ccc(C(=O)Nc5ccc(OC)cc5)cc4)CC3)c(OC)c2)c1")
3.2
>>> testresult("CCOc1cncc(-c2ccc(C(=O)N3CCN(c4ccc(C(=O)Nc5ccc(OC)cc5)nn4)CC3)cc2F)c1")
0.8

* * *

Listing of entries alongside the reported ASMS ratio (%).
Target: Bcl-2 protein (Recombinant Human Bcl-2 Protein) (Homo sapiens, UniProt P10415)
Construct: purchased Novus NBP2-34889
Experiment: Binding evaluation of mixture library compounds to Bcl-2 using AS-MS (affinity selection mass spectrometry)
Conditions: n = 2
propertyMeasured: ASMS ratio (%)

>>> testresult("CCOc1cncc(C#Cc2cc(C(=O)N3CCN(c4ccc(C(=O)NS(=O)(=O)C(C)(C)C)cc4)CC3)cc(C(F)(F)F)c2)c1")
"0.0%"
>>> testresult("CCOc1cncc(-c2cc(OC)c(CN3CCN(c4ccc(C(=O)NS(=O)(=O)c5ccc(NCCSc6ccccc6)c(C(F)(F)F)c5)cc4)CC3)c(OC)c2)c1")
"0.0%"
>>> testresult("CCOc1cncc(-c2ccc(C(C)N3CCN(c4ccc(C(=O)NS(C)(=O)=O)cc4)CC3)c(F)c2)c1 (stereo not shown)")
"0.0%"
>>> testresult("CCOc1cccc(-c2cc(C(=O)N3CCN(c4ccc(C(=O)NS(=O)(=O)C(C)(C)C)nn4)CC3)cc(C(C)(C)C)c2)c1")
"0.0%"
>>> testresult("CCOc1cncc(-c2csc(CN3CCN(c4ccc(C(=O)NS(=O)(=O)CCC(F)(F)F)cc4)CC3)c2)c1")
"0.5%"
>>> testresult("CCOc1cncc(-c2ccc(CN3CCN(c4ccc(C(=O)NS(=O)(=O)c5ccc(NCCSc6ccccc6)c(C(F)(F)F)c5)nn4)CC3)c(OC)c2)c1")
"21.2%"
>>> testresult("CCOc1cncc(C#Cc2cc(C(=O)N3CCN(c4ccc(C(=O)NS(=O)(=O)C(C)(C)C)nn4)CC3)cc(C(F)(F)F)c2)c1")
"0.0%"
>>> testresult("CCOc1cncc(-c2csc(C(=O)N3CCN(c4ccc(C(=O)NS(=O)(=O)c5ccc(NCCSc6ccccc6)c(C(F)(F)F)c5)cc4)CC3)c2)c1")
"−1.2%"
>>> testresult("CCOc1cccc(-c2cc(OC)c(CN3CCN(c4ccc(C(=O)NS(=O)(=O)C(C)(C)C)nn4)CC3)c(OC)c2)c1")
"0.0%"
>>> testresult("CCOc1cccc(-c2cc(CN3CCN(c4ccc(C(=O)NS(=O)(=O)CCC(F)(F)F)cc4)CC3)cc(C(F)(F)F)c2)c1")
"0.0%"
>>> testresult("CCOc1cccc(C#Cc2ccccc2CN2CCN(c3ccc(C(=O)NS(=O)(=O)C(C)(C)C)cc3)CC2)c1")
"0.0%"
>>> testresult("CCOc1cncc(-c2cc(OC)c(CN3CCN(c4ccc(C(=O)NS(=O)(=O)c5ccc(NCCSc6ccccc6)c(C(F)(F)F)c5)nn4)CC3)c(OC)c2)c1")
"0.0%"
>>> testresult("CCOc1cncc(-c2ccc(CN3CCN(c4ccc(C(=O)NS(C)(=O)=O)cc4)CC3)cc2C)c1")
"0.0%"

* * *

Listing of entries alongside the reported ASMS ratio (%).
Target: Bcl-2 protein (Recombinant Human Bcl-2 Protein) (Homo sapiens, UniProt P10415)
Construct: purchased Novus NBP2-34889
Assay: Binding evaluation of mixture library compounds to Bcl-2 using AS-MS (affinity selection mass spectrometry)
Details: n = 1
propertyMeasured: ASMS ratio (%)

>>> testresult("CCOc1cncc(-c2cnn(-c3cc(C(=O)N4CCN(c5ccc(C(=O)NS(=O)(=O)c6ccc(NCCSc7ccccc7)c(C(F)(F)F)c6)nn5)CC4)cc(C(F)(F)F)c3)c2)c1 [B2R022-01]")
14.5
>>> testresult("CCOc1cccc(-c2ccccc2CN2CCN(c3ccc(C(=O)NS(=O)(=O)C(C)(C)C)nn3)CC2)c1 [B2L071-01]")
1.2
>>> testresult("CCOc1cncc(-c2ccccc2CCC(=O)N2CCN(c3ccc(C(=O)NS(=O)(=O)c4ccc(NCCSc5ccccc5)c(C(F)(F)F)c4)nn3)CC2)c1 [B2R012-01]")
15.8
>>> testresult("CCOc1cncc(C#Cc2ccccc2C(=O)N2CCN(c3ccc(C(=O)NS(=O)(=O)c4ccc(NCCSc5ccccc5)c(C(F)(F)F)c4)nn3)CC2)c1 [B2R008-01]")
0.0
>>> testresult("CCOc1cncc(-c2ccccc2CCC(=O)N2CCN(c3ccc(C(=O)NS(=O)(=O)CCC(F)(F)F)nn3)CC2)c1 [B2N012-01]")
0.0
>>> testresult("CCOc1cccc(C#Cc2ccccc2CN2CCN(c3ccc(C(=O)NS(C)(=O)=O)nn3)CC2)c1 [B2I095-01]")
0.0
>>> testresult("CCOc1cccc(C#Cc2ccccc2C(=O)N2CCN(c3ccc(C(=O)NS(=O)(=O)CCC(F)(F)F)nn3)CC2)c1 [B2N007-01]")
0.0
>>> testresult("CCOc1cccc(-c2cc(CN3CCN(c4ccc(C(=O)NS(=O)(=O)C(C)(C)C)cc4)CC3)cc(OC(F)(F)F)c2)c1 [B2L063-01]")
0.0
>>> testresult("CCOc1cccc(-c2cc(CN3CCN(c4ccc(C(=O)NS(C)(=O)=O)cc4)CC3)cc(OC(C)C)c2)c1 [B2I057-01]")
0.0
>>> testresult("CCOc1cccc(C#Cc2cncc(C(=O)N3CCN(c4ccc(C(=O)NS(=O)(=O)c5ccc(NCCSc6ccccc6)c(C(F)(F)F)c5)cc4)CC3)c2)c1 [B2R031-01]")
0.0
>>> testresult("CCOc1cccc(-c2cnn(-c3cc(C(=O)N4CCN(c5ccc(C(=O)NS(=O)(=O)C(C)(C)C)cc5)CC4)cc(C(F)(F)F)c3)c2)c1 [B2L043-01]")
0.0
>>> testresult("CCOc1cncc(-c2cc(CN3CCN(c4ccc(C(=O)NS(=O)(=O)c5ccc(NCCSc6ccccc6)c(C(F)(F)F)c5)nn4)CC3)cc(C(F)(F)F)c2)c1 [B2R088-01]")
35.3
>>> testresult("CCOc1cncc(-c2ccc(C(C)N3CCN(c4ccc(C(=O)NS(C)(=O)=O)cc4)CC3)c(F)c2)c1 (stereo not shown) [B2I100-01]")
0.0
>>> testresult("CCOc1cncc(-c2cc(CN3CCN(c4ccc(C(=O)NS(=O)(=O)c5ccc(NCCSc6ccccc6)c(C(F)(F)F)c5)cc4)CC3)cc(OC(F)(F)F)c2)c1 [B2R064-01]")
4.2
>>> testresult("CCOc1cncc(-c2cc(CN3CCN(c4ccc(C(=O)NS(=O)(=O)CCC(F)(F)F)nn4)CC3)cc(C(F)(F)F)c2)c1 [B2N088-01]")
0.0
>>> testresult("CCOc1cccc(-c2ccc(C(=O)N3CCN(c4ccc(C(=O)NS(=O)(=O)c5ccc(NCCSc6ccccc6)c(C(F)(F)F)c5)nn4)CC3)cc2F)c1 [B2R005-01]")
44.0
>>> testresult("CCOc1cncc(-c2ccc(CN3CCN(c4ccc(C(=O)NS(=O)(=O)C(C)(C)C)cc4)CC3)cc2F)c1 [B2L052-01]")
2.7
>>> testresult("CCOc1cncc(-c2ccc(C(=O)N3CCN(c4ccc(C(=O)NS(=O)(=O)c5ccc(NCCSc6ccccc6)c(C(F)(F)F)c5)nn4)CC3)c3ccccc23)c1 [B2R014-01]")
18.6
>>> testresult("CCOc1cccc(-c2cc(C(=O)N3CCN(c4ccc(C(=O)NS(=O)(=O)C(C)(C)C)nn4)CC3)cc(C(F)(F)F)c2)c1 [B2L017-01]")
0.0
>>> testresult("CCOc1cccc(-c2ccc(C(=O)N3CCN(c4ccc(C(=O)NS(=O)(=O)c5ccc(NCCSc6ccccc6)c(C(F)(F)F)c5)nn4)CC3)c3ccccc23)c1 [B2R013-01]")
7.5
>>> testresult("CCOc1cncc(-c2ccccc2CN2CCN(c3ccc(C(=O)NS(=O)(=O)C(C)(C)C)cc3)CC2)c1 [B2L046-01]")
0.0
>>> testresult("CCOc1cncc(-c2cc(C(=O)N3CCN(c4ccc(C(=O)NS(=O)(=O)C(C)(C)C)cc4)CC3)cc(C(C)(C)C)c2)c1 [B2L038-01]")
0.0
>>> testresult("CCOc1cccc(-c2ccccc2CN2CCN(c3ccc(C(=O)NS(=O)(=O)CCC(F)(F)F)nn3)CC2)c1 [B2N071-01]")
0.0
>>> testresult("CCOc1cncc(-c2cc(CN3CCN(c4ccc(C(=O)NS(C)(=O)=O)nn4)CC3)cc(OC(C)C)c2)c1 [B2I084-01]")
"−0.9"
>>> testresult("CCOc1cncc(-c2cc(CN3CCN(c4ccc(C(=O)NS(=O)(=O)CCC(F)(F)F)cc4)CC3)cc(OC(F)(F)F)c2)c1 [B2N064-01]")
0.0
